# Tested on: PPARg DBDmut:RXRa IVT, anti-PPARg (DBD mutation: PPARg1 K132A/R137A, NR concentration 270 nM, RXRa partner concentration 90 nM)
# PROTOCOL SUMMARY: PBM binding z-score (relative to random genomic background probes); higher = stronger binding; sequences stand for … in GC…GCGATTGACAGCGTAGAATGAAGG
Assign 1.0 whenever PBM binding z-score does not fall below 0.6; assign 0.0 whenever it does.

RESIDUE STRING	ASSIGNED LABEL
ATATGTAGGTTACAACCGGGTCATTCAGGCTATG	1.0
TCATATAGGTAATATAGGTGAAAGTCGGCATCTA	1.0
ATCTCTAGGTAAAGATAGTTCAGAGAATGCAAAT	0.0
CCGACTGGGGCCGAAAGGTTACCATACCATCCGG	0.0
CGACCAAGGTCAGCAGGTCAGTGAAAGCGACGTG	0.0
CCTACTTGGCCAAGGTCATTGATCAGTCAAAGCA	0.0
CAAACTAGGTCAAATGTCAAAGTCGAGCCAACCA	1.0
ATCTCTAGGTAACACGTTCAGTGAAAGAGAGGAC	1.0
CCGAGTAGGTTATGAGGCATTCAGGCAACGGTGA	0.0
CGTCCACGGTCAGAGAGGTCAGTGAATGCCGAGT	0.0
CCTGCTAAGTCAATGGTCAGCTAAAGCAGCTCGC	0.0
TCTAGCAGGTCAGAGGGTCACTCAAGAGGTACGG	0.0
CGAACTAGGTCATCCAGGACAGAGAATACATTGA	1.0
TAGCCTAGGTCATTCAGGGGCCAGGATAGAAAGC	0.0
AGCATGAGGTTACCAAAGATCAGGGAAACGCTTG	0.0
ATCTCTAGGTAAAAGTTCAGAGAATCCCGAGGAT	1.0
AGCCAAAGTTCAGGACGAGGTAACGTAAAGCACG	0.0
ATATGTAGGTTAGCTGGGCTCATTCAGACTAGGC	1.0
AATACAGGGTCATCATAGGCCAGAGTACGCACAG	1.0
CGTCAAAGTTCAAGGTGACGTAACAGAAAGCAGC	0.0
CCTACTGGGCCAAAAAGATCATTGATGCCGATAA	0.0
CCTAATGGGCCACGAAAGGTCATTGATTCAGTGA	0.0
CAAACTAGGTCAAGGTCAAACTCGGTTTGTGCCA	1.0
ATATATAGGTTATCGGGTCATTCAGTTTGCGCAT	1.0
AGTCAAAGTTCAGGACGATGTAACGTAAAGCACG	1.0
TAGCCTTGGTCATGCGGGCCAGTATAGTGTCGGC	0.0
CCTACTGGGCCAAAGGTCGTTGATTCCAATGCTC	0.0
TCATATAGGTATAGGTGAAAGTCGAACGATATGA	1.0
CCTGCTAGGTCAATCGTCAGCTAAAGCAGCTCGC	0.0
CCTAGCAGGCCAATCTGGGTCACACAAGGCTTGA	0.0
CGAACTAGGTTAGAACAGGACAGTGAAGGATGAT	1.0
GCTTTTAGATCAAGGTTAAGAAAGACTAAGCTAA	1.0
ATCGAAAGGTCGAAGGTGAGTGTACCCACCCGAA	1.0
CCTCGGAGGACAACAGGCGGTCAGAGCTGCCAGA	0.0
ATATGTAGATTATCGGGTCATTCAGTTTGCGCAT	1.0
TCTAGTTGGTCAAGGAGGTCACACACGACGGGTA	1.0
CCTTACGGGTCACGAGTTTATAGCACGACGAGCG	1.0
